assay_system: WT AChE1 (Culex pipiens)
Sequence (Q86GC8 37-702): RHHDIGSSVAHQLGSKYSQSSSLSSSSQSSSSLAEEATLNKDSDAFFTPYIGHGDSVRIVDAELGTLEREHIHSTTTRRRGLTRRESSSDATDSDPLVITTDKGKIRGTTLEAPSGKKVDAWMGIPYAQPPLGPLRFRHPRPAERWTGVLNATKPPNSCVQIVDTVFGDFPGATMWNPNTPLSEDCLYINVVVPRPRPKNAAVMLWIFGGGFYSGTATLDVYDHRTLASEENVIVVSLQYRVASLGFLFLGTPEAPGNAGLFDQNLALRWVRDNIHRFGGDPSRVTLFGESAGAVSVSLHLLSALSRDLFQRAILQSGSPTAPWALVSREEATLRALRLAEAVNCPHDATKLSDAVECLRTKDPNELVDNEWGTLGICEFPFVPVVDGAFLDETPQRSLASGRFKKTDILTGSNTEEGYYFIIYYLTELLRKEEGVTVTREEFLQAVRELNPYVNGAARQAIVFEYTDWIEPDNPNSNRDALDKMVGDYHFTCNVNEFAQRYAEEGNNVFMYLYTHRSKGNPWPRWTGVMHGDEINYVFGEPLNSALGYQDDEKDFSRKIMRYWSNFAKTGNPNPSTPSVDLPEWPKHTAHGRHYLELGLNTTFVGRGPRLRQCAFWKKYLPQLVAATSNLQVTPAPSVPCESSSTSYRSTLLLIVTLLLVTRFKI
experimental_parameters: read-out: Kic WT; dissociation constant of enzyme-inhibitor complex; five independent replicates
pKi: −log10 of the molar value.
Overview of recorded pKi for various molecules

chemical_string: Cc1ccc(C=C2C(=O)N(C)C(=O)N(C)C2=O)o1
pKi: 3.89

chemical_string: Cc1ccc(C=C2C(=O)NC(=O)N(c3ccccc3)C2=O)o1
pKi: 3.90

chemical_string: COc1ccc(N2C(=O)NC(=O)C(=Cc3ccc(C)o3)C2=O)cc1
pKi: 4.05

###

Test system: C. pipiens Slab strain larvae
procedure_details: Larval bioassay, Slab strain (OP-susceptible)
experimental_parameters: fourth-instar larvae, 24 hours exposure, 300 µM
Please use t for Mortality at 300 µM, Slab under 20% and f for everything else, ties included.

compound: Cc1ccc(C=C2C(=O)NC(=S)N(c3ccc(Cl)cc3)C2=O)o1 [PTF-35]
answer_label: t
//
compound: O=C1NC(=O)N(c2ccccc2)C(=O)C1=Cc1ccco1 [PTF-54]
answer_label: f
//
compound: COc1ccc(N2C(=O)C(=Cc3ccc(C)o3)C(=O)NC2=S)c(OC)c1 [PTF-30]
answer_label: f
//
compound: O=C1NC(=O)N(c2ccccc2)C(=O)C1=Cc1ccc(N2CCOCC2)o1 [PTF-62]
answer_label: t
//
compound: COc1ccc(OC)c(N2C(=O)NC(=O)C(=Cc3ccc(C)o3)C2=O)c1 [PTF-14]
answer_label: t
//
compound: Cc1cccc(N2C(=O)NC(=O)C(=Cc3ccc(C)o3)C2=O)c1 [PTF-6]
answer_label: t
//
compound: Cc1ccc(C=C2C(=O)NC(=O)N(c3ccc(F)cc3)C2=O)o1 [PTF-17]
answer_label: t

###

Test system: C. pipiens Slab strain larvae
procedure_details: Larval bioassay, Slab strain (OP-susceptible)
experimental_parameters: fourth-instar larvae, 24 hours exposure, 300 µM
Overview of recorded Mortality at 300 µM, Slab for various compounds

compound: Cc1ccc(N2C(=O)C(=Cc3ccc(C)o3)C(=O)NC2=S)cc1 [PTF-24]
unit_label: %
Mortality at 300 µM, Slab: 0
//
compound: Cc1ccc(C=C2C(=O)NC(=O)N(c3ccc(C(C)C)cc3)C2=O)o1 [PTF-9]
unit_label: %
Mortality at 300 µM, Slab: 19
//
compound: Cc1cccc(N2C(=O)C(=Cc3ccc(C)o3)C(=O)NC2=S)c1 [PTF-25]
unit_label: %
Mortality at 300 µM, Slab: 32
//
compound: COc1ccc(N2C(=O)NC(=O)C(=Cc3ccc(C)o3)C2=O)cc1 [PTF-10]
unit_label: %
Mortality at 300 µM, Slab: 14
//
compound: O=C1NC(=O)N(c2ccccc2)C(=O)C1=Cc1ccc(-c2cccc(C(=O)O)c2)s1 [PTF-69]
unit_label: %
Mortality at 300 µM, Slab: 0
//
compound: N=C1NC(=O)C(=Cc2ccco2)C(=O)N1c1ccccc1 [PTF-64]
unit_label: %
Mortality at 300 µM, Slab: 0
//
compound: CN1C(=O)C(=Cc2ccc(N3CCOCC3)o2)C(=O)N(C)C1=O [PTF-50]
unit_label: %
Mortality at 300 µM, Slab: 0
//
compound: CN1C(=O)C(=Cc2ccc([N+](=O)[O-])o2)C(=O)N(C)C1=O [PTF-40]
unit_label: %
Mortality at 300 µM, Slab: 0
//
compound: Cc1ccc(C=C2C(=O)NC(=O)N(C3CCCCC3)C2=O)o1 [PTF-2]
unit_label: %
Mortality at 300 µM, Slab: 12
//
compound: C=CCN1C(=O)NC(=O)C(=Cc2ccc(C)s2)C1=O [PTF-66]
unit_label: %
Mortality at 300 µM, Slab: 63
//
compound: Cc1ccc(C=C2C(=O)NC(=S)N(c3ccc(F)cc3)C2=O)o1 [PTF-33]
unit_label: %
Mortality at 300 µM, Slab: 16
//
compound: O=C1NC(=O)N(c2ccccc2)C(=O)C1=Cc1ccc(Sc2ccccc2)o1 [PTF-60]
unit_label: %
Mortality at 300 µM, Slab: 50
//
compound: COc1cccc(N2C(=O)C(=Cc3ccc(C)o3)C(=O)NC2=S)c1 [PTF-29]
unit_label: %
Mortality at 300 µM, Slab: 27
//
compound: COc1ccccc1N1C(=O)NC(=O)C(=Cc2ccc(C)o2)C1=O [PTF-11]
unit_label: %
Mortality at 300 µM, Slab: 0
//
compound: Cc1ccc(C=C2C(=O)NC(=S)N(CC3CCCO3)C2=O)o1 (stereo not shown) [PTF-32]
unit_label: %
Mortality at 300 µM, Slab: 0
//
compound: CN1C(=O)C(=Cc2ccc(N3CCCC3)o2)C(=O)N(C)C1=O [PTF-48]
unit_label: %
Mortality at 300 µM, Slab: 0
//
compound: Cc1ccc(C=C2C(=O)NC(=O)N(c3ccc(C)c(C)c3)C2=O)o1 [PTF-7]
unit_label: %
Mortality at 300 µM, Slab: 100
//
compound: CN1C(=O)C(=Cc2ccco2)C(=O)N(C)C1=O [PTF-38]
unit_label: %
Mortality at 300 µM, Slab: 70
//
compound: Cc1ccc(C=C2C(=O)NC(=O)N(c3cccc(Br)c3)C2=O)o1 [PTF-22]
unit_label: %
Mortality at 300 µM, Slab: 68

Every entry's value here was drawn from paper PMC3466212.
